Molecular target: human JAK3 kinase domain (JH1) (Homo sapiens, UniProt P52333)
Construct: recombinantly generated catalytic kinase (also known as JH1) domain of human JAK1, JAK2, JAK3 and TYK2
Sequence (P52333 822-1111 limits assumed): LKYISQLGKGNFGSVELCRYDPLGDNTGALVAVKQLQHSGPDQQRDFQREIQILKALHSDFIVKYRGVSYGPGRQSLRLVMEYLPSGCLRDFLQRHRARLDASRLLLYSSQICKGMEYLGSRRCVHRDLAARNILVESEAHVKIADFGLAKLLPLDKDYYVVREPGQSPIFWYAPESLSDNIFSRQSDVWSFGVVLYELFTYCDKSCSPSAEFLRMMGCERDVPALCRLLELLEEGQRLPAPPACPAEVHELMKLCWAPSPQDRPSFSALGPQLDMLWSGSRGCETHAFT
Assay: JH1 biochemical assay for JAK3 (ADP-Glo kinase assay, recombinant JH1 catalytic domain, JAK3-974 peptide, 4 μM ATP)
Settings: JH1 kinase domain, ADP-Glo
Where a name gives a salt, the structure may show the parent alone.
Endpoint: IC50

{"Compound": "C[C@@H]1C[C@@](C#N)(C2CC2)C(=O)N1c1ccnn2cc(-c3cnn(C)c3)cc12 [Example 17]", "Endpoint": "IC50", "Assay value": "5 to 10 µM"}
{"Compound": "C[C@@H]1CN(c2nc(-c3ccc(C#N)nc3)cn3nccc23)C(=O)[C@]1(C#N)C1CC1 [Example 195]", "Endpoint": "IC50", "Assay value": "< 0.1 µM"}
{"Compound": "Cn1cc(-c2cc3c(N4CC[C@@](CC#N)(C5CC5)C4=O)ccnn3c2)cn1 [Example 27]", "Endpoint": "IC50", "Assay value": "1 to 5 µM"}
{"Compound": "Cc1ccc(-c2cc3c(N4C[C@@H](C)[C@@](C#N)(C5CC5)C4=O)ccnn3c2)nn1 [Example 137, trifluoroacetate]", "Endpoint": "IC50", "Assay value": "0.1 to 1 µM"}
{"Compound": "C[C@@H]1CN(c2nc(-c3ccc(=O)n(C(F)F)c3)cn3nccc23)C(=O)[C@]1(C#N)C1CC1 [Example 210]", "Endpoint": "IC50", "Assay value": "< 0.1 µM"}
{"Compound": "Cn1cc(-c2cc3c(N4CC[C@@](C#N)(C5COC5)C4=O)ccnn3c2)cn1 (single isomer, unassigned) [Example 45]", "Endpoint": "IC50", "Assay value": "> 10 µM"}
{"Compound": "CC(=O)Nc1cncc(-c2cc3c(N4C[C@@H](C)[C@@](C#N)(C5CC5)C4=O)ccnn3c2)c1 [Example 90]", "Endpoint": "IC50", "Assay value": "0.1 to 1 µM"}
{"Compound": "C[C@@H]1CN(c2ccnn3cc(-c4cnccn4)cc23)C(=O)[C@]1(C#N)C1CC1 [Example 151, trifluoroacetate]", "Endpoint": "IC50", "Assay value": "1 to 5 µM"}
{"Compound": "COc1cc(-c2cc3c(N4C[C@@H](C)[C@@](C#N)(C5CC5)C4=O)ccnn3c2)ccn1 [Example 65]", "Endpoint": "IC50", "Assay value": "0.1 to 1 µM"}
{"Compound": "Cc1nn(C)cc1-c1cc2c(N3C[C@@H](C)[C@@](C#N)(C4CC4)C3=O)ccnn2c1 [Example 165]", "Endpoint": "IC50", "Assay value": "0.1 to 1 µM"}
{"Compound": "C[C@@H]1CN(c2nc(-c3cnn(C4CCCC4)c3)cn3ncc(F)c23)C(=O)[C@]1(C#N)C1CC1 [Example 217]", "Endpoint": "IC50", "Assay value": "< 0.1 µM"}
{"Compound": "Cn1cc(-c2cc3c(N4CC[C@](C#N)(C5CCC5)C4=O)ccnn3c2)cn1 (single isomer, unassigned) [Example 47]", "Endpoint": "IC50", "Assay value": "> 10 µM"}
{"Compound": "C[C@@H]1CN(c2ccnn3cc(-c4cccc5cncn45)cc23)C(=O)[C@]1(C#N)C1CC1 [Example 128, trifluoroacetate]", "Endpoint": "IC50", "Assay value": "0.1 to 1 µM"}
{"Compound": "Cn1cc(-c2cc3c(N4CC[C@@](C(F)F)(C5CC5)C4=O)ccnn3c2)cn1 [Example 15]", "Endpoint": "IC50", "Assay value": "1 to 5 µM"}
{"Compound": "C[C@@H]1CN(c2ccnn3cc(-c4cnn(C5COC5)c4)cc23)C(=O)[C@]1(C#N)C1CC1 [Example 97]", "Endpoint": "IC50", "Assay value": "< 0.1 µM"}

###

Target: human JAK2 kinase domain (JH1) (Homo sapiens)
Construct: recombinantly generated catalytic kinase (also known as JH1) domain of human JAK1, JAK2, JAK3 and TYK2
Test: JH1 biochemical assay for JAK2 (ADP-Glo kinase assay, recombinant JH1 catalytic domain, JAK3-974 peptide, 15 μM ATP)
Conditions: JAK2 JH1, ADP-Glo
pIC50: −log10 of the molar value. Counter-ions that a name gives are not always drawn.
Parameter pIC50: see the listing below.

{"Compound": "C[C@@H]1CN(c2nc(-c3ccc(C(F)(F)F)nc3)cn3nccc23)C(=O)[C@]1(C#N)C1CC1 [Example 238, trifluoroacetate]", "pIC50": "< 5.00"}
{"Compound": "C[C@@H]1CN(c2nn(-c3cnn(C4COC4)c3)c3cnccc23)C(=O)[C@]1(C#N)C1CC1", "pIC50": "6.00 to 7.00"}
{"Compound": "C[C@@H]1CN(c2ccnn3cc(-c4cnn(C5CN(C)C5)c4)cc23)C(=O)[C@]1(C#N)C1CC1", "pIC50": "6.00 to 7.00"}
{"Compound": "C[C@@H]1CN(c2cc(-c3cnn(C)c3)cc3nscc23)C(=O)[C@]1(C#N)C1CC1", "pIC50": "6.00 to 7.00"}
{"Compound": "C[C@@H]1CN(c2nc(-c3cnn(C4CC(F)(F)C4)c3)cn3nccc23)C(=O)[C@]1(C#N)C1CC1", "pIC50": "> 7.00"}
{"Compound": "C[C@@H]1CN(c2ccnn3cc(-c4cnn(C5(CO)CC5)c4)cc23)C(=O)[C@]1(C#N)C1CC1", "pIC50": "6.00 to 7.00"}
{"Compound": "C[C@@H]1CN(c2nc(-c3cnn(C4CC5(COC5)C4)c3)cn3ncc(F)c23)C(=O)[C@]1(C#N)C1CC1", "pIC50": "> 7.00"}

###

Target: human JAK1 kinase domain (JH1) (Homo sapiens, UniProt P23458)
Construct: recombinantly generated catalytic kinase (also known as JH1) domain of human JAK1, JAK2, JAK3 and TYK2
Sequence (P23458 875-1153 limits assumed): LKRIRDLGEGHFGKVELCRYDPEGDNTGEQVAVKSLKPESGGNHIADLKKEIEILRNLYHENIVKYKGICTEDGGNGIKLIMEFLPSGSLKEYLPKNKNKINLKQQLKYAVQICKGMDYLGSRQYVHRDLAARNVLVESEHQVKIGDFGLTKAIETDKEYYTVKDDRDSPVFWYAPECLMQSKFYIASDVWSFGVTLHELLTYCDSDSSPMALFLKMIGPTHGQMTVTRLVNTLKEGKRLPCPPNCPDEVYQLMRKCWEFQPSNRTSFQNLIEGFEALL
Assay: JH1 biochemical assay for JAK1 (ADP-Glo kinase assay, recombinant JH1 catalytic domain, JAK3-342 peptide, 35 μM ATP)
Conditions: JH1 kinase domain, ADP-Glo
pIC50: −log10 of the molar value. Where a name gives a salt, the structure may show the parent alone.

{"Compound": "C[C@@H]1CN(c2ccnn3cc(-c4cnn(C)c4)nc23)C(=O)[C@]1(C#N)C1CC1", "pIC50": "6.00 to 7.00"}
{"Compound": "C[C@@H]1CN(c2ccnn3cc(-c4ccn(C)c(=O)c4)cc23)C(=O)[C@]1(C#N)C1CC1", "pIC50": "6.00 to 7.00"}
{"Compound": "CC(C)n1cc(-c2cn3ncc(F)c3c(N3C[C@@H](C)[C@@](C#N)(C4CC4)C3=O)n2)cn1", "pIC50": "> 7.00"}
{"Compound": "C[C@@H]1CN(c2ccnn3cc(-c4nc(C#N)cs4)cc23)C(=O)[C@]1(C#N)C1CC1 [Example 114, trifluoroacetate]", "pIC50": "< 5.00"}
{"Compound": "Cc1nn(C)cc1-c1cn2nccc2c(N2C[C@@H](C)[C@@](C#N)(C3CC3)C2=O)n1", "pIC50": "> 7.00"}
{"Compound": "C[C@@H]1CN(c2nc(-c3cnc4c(c3)CCC(=O)N4)cn3nccc23)C(=O)[C@]1(C#N)C1CC1", "pIC50": "> 7.00"}

###

Biological target: human JAK2 kinase domain (JH1) (Homo sapiens, UniProt O60674)
Construct: recombinantly generated catalytic kinase (also known as JH1) domain of human JAK1, JAK2, JAK3 and TYK2
Sequence (O60674 849-1124 limits assumed): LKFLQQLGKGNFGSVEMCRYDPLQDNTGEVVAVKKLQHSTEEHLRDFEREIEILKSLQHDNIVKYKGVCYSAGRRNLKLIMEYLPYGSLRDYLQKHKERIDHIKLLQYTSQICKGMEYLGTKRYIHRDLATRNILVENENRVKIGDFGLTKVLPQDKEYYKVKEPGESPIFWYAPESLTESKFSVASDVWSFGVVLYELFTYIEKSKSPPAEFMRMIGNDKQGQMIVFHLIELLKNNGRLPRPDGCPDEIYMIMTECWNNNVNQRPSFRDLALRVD
Test: JH1 biochemical assay for JAK2 (ADP-Glo kinase assay, recombinant JH1 catalytic domain, JAK3-974 peptide, 15 μM ATP)
Conditions: JH1 kinase domain, ADP-Glo
Description: Compounds of the disclosure were assessed for their ability to inhibit TYK2, JAK1, JAK2, and JAK3 activity. The inhibitory properties of the compounds of the disclosure described herein can be evidenced by testing in any one of the following protocols. The kinase activity of recombinantly generated catalytic kinase (also known as JH1) domain of human JAK1, JAK2, JAK3 and TYK2 were evaluated in a plate-based assay using the ADP-Glo™ Kinase Assay platform. […]
Structures can show the parent of a compound that is named as a salt.
Recorded measurements of IC50, one per entry

{"Molecule": "C[C@@H]1CN(c2ccnn3cc(-c4ccnn4C)cc23)C(=O)[C@]1(C#N)C1CC1", "IC50": "1000 to 5000 nM"}
{"Molecule": "C[C@@H]1CN(c2nc(-c3cccnc3)cn3nccc23)C(=O)[C@]1(C#N)C1CC1", "IC50": "100 to 1000 nM"}
{"Molecule": "C[C@@H]1CN(c2ccnn3cc(-c4cnccn4)cc23)C(=O)[C@]1(C#N)C1CC1 [Example 151, trifluoroacetate]", "IC50": "1000 to 5000 nM"}
{"Molecule": "C[C@@H]1CN(c2nc(-c3ccnc(C#N)c3)cn3nccc23)C(=O)[C@]1(C#N)C1CC1", "IC50": "100 to 1000 nM"}
{"Molecule": "Cc1csc(-c2cc3c(N4C[C@@H](C)[C@@](C#N)(C5CC5)C4=O)ccnn3c2)n1 [Example 113, trifluoroacetate]", "IC50": "1000 to 5000 nM"}
{"Molecule": "Cc1ccc2nc(-c3cc4c(N5C[C@@H](C)[C@@](C#N)(C6CC6)C5=O)ccnn4c3)nn2c1 [Example 109, trifluoroacetate]", "IC50": "5000 to 10000 nM"}
{"Molecule": "C[C@@H]1CN(c2ccnn3cc(-c4cccc(C(F)F)n4)cc23)C(=O)[C@]1(C#N)C1CC1 [Example 135, trifluoroacetate]", "IC50": "100 to 1000 nM"}
{"Molecule": "COc1ccc(-c2cn3nccc3c(N3C[C@@H](C)[C@@](C#N)(C4CC4)C3=O)n2)nc1", "IC50": "1000 to 5000 nM"}
{"Molecule": "C[C@@H]1CN(c2ccnn3cc(-c4cnccc4C(F)(F)F)cc23)C(=O)[C@]1(C#N)C1CC1", "IC50": "> 10000 nM"}
{"Molecule": "CC[C@@]1(C#N)CCN(c2ccnn3cc(-c4cnn(C)c4)cc23)C1=O (single isomer, unassigned)", "IC50": "> 10000 nM"}
{"Molecule": "COc1cncc(-c2cc3c(N4C[C@@H](C)[C@@](C#N)(C5CC5)C4=O)ccnn3c2)n1 [Example 126, trifluoroacetate]", "IC50": "100 to 1000 nM"}
{"Molecule": "C[C@@H]1CN(c2ccnn3cc(-c4cnn(-c5ccccn5)c4)cc23)C(=O)[C@]1(C#N)C1CC1", "IC50": "100 to 1000 nM"}
{"Molecule": "C[C@@H]1CN(c2ccnn3cc(-c4cnn(C(F)F)c4)cc23)C(=O)[C@]1(C#N)C1CC1", "IC50": "100 to 1000 nM"}
{"Molecule": "C[C@@H]1CN(c2ccnn3cc(-c4cnn(-c5cccnc5)c4)cc23)C(=O)[C@]1(C#N)C1CC1", "IC50": "100 to 1000 nM"}
{"Molecule": "C[C@@H]1CN(c2nc(-c3cnn(C4CC4(F)F)c3)cn3nccc23)C(=O)[C@]1(C#N)C1CC1 (stereo partly drawn)", "IC50": "< 100 nM"}
